Tested on: 786-0 renal
PROTOCOL TEXT: NCI tumour cell line growth inhibition, 48 h
Square brackets hold non-standard residues; d marks the D form. Peptide text beside a SMILES is read from it. Phe(4-NO2) = N[CH](Cc1ccc([N+](=O)[O-])cc1)C(=O)O
MEASURE NAME: TGI

Answered examples (5):
{"columns": ["COMPOUND", "RESULT VALUE"],
 "data": [
  ["CCN(CCCl)c1cc(CN(C)C)cc(NC(=O)c2ccc(C(=O)Nc3ccccc3)cc2)c1", "0.581 µM"],
  ["CCCCCCC(=O)c1ccc2ccccc2c1O", "> 100 µM"],
  ["NC(N)=NC(N)=Nc1ccc(S(N)(=O)=O)cc1", "> 100 µM"],
  ["CC1OC(OC2C[C@](O)(C(=O)CBr)Cc3c(O)c4c(c(O)c32)C(=O)c2ccccc2C4=O)C(F)C(O)C1O (some centres not stated)", "> 59.5 µM"],
  ["C[C@@H]1OC(=O)NN=C1c1ccc(-c2ccc(F)cc2)c(C(F)(F)F)c1", "30.3 µM"]
]}

Incoming: Please look at this compound and report its TGI: Cn1cc2ccccc2c1-c1nc(F)nc(Nc2ccc(N)cc2)n1
Outgoing: 64 µM

Incoming: Please look at this compound and report its TGI: CC1(C)/C(=N\Nc2ccc([N+](=O)[O-])cc2[N+](=O)[O-])C2CCC1C2 (configuration not stated)
Outgoing: > 100 µM

Incoming: Please look at this compound and report its TGI: Cc1nc2ccccc2c(/C=C/c2ccccc2)c1C(=O)/C=C/c1ccccc1
Outgoing: 3.02 µM

Incoming: Please look at this compound and report its TGI: COc1ccc(C(=O)c2cc(C)c(OC)c(C)c2)c(OC)c1N(C(=O)CCl)C(=O)CCl
Outgoing: 15.4 µM

Incoming: Please look at this compound and report its TGI: COC1C(OC(C)=O)CC(=O)OC(C)C/C=C/C=C\C(O)C(C)CC(CC=O)C1OC1OC(C)C(OC2CC(C)(O)C(OC(=O)CC(C)C)C(C)O2)C(N(C)C)C1O (configuration not stated)
Outgoing: > 100 µM

Incoming: Please look at this compound and report its TGI: CC(C)Cc1ccc(C(C)/C=C2\CCC(CN3CCCCC3)C2=O)cc1 (configuration not stated)
Outgoing: 3.38 µM

Incoming: Please look at this compound and report its TGI: COC(=O)CCC(NC(=O)C(CCC(=O)OC)NC(=O)C(CCC(=O)OC)NC(=O)C(CCC(=O)OC)NC(=O)C(CCC(=O)OC)NC(=O)C(Cc1ccc([N+](=O)[O-])cc1)NC(=O)C(CCC(=O)OC)NC(=O)C(CCC(=O)OC)NC(=O)C(CCC(=O)OC)NC(=O)C(CCC(=O)OC)NC(=O)C(CCC(=O)OC)NC(C)=O)C(N)=O (configuration not stated) (Ac-E(OMe)E(OMe)E(OMe)E(OMe)E(OMe)[Phe(4-NO2)]E(OMe)E(OMe)E(OMe)E(OMe)E(OMe)-NH2; configuration not given here)
Outgoing: > 100 µM

Incoming: Please look at this compound and report its TGI: S=C1SCN(C2CCCCCCCCCCC2)CN1C1CCCCCCCCCCC1
Outgoing: > 100 µM

Incoming: Please look at this compound and report its TGI: CCN(CC)CCOc1ccc(Cc2ccccc2)cc1
Outgoing: > 100 µM

Incoming: Please look at this compound and report its TGI: COc1c2occc2cc2ccc(=O)oc12
Outgoing: > 100 µM

Incoming: Please look at this compound and report its TGI: O=C(NNC(=O)c1c(Cl)c(Cl)c(Cl)c(Cl)c1-c1nc2ccccc2[nH]1)c1ccc(Cl)cc1
Outgoing: > 100 µM

Incoming: Please look at this compound and report its TGI: CO/N=C(\C(=O)[N-][n+]1cnn(CC(=O)O)c1)c1csc(N)n1
Outgoing: > 10 µM

* * *

System: M14 melanoma
PROTOCOL TEXT: NCI tumour cell line growth inhibition, 48 h
Where a SMILES comes first, the peptide text is derived from it. [ ]: non-standard residue; d: D form. The star is where a group is joined. ξ: configuration not given here. ξPhe(4-NO2) = NC(Cc1ccc([N+](=O)[O-])cc1)C(=O)O; Boc = CC(C)(C)OC(=O)*
Recorded measurements of TGI, one per entry

Answered examples (8):
{"columns": ["MOLECULE", "TGI"],
 "data": [
  ["Cc1ccc(N2C3=C(CC4=C2CC(C)(C)CC4=O)C(=O)CC(C)(C)C3)cc1", "> 100 µM"],
  ["O=C1/C(=C\\c2cccc(Oc3ccccc3)c2)SC(c2ccccc2)N1c1cccc(Cl)c1 (stereo not given)", "> 100 µM"],
  ["CCNC(=O)CNC(=O)C(Cc1ccc([N+](=O)[O-])cc1)NC(=O)OC(C)(C)C (stereo not given) (Boc-[ξPhe(4-NO2)]-Gly-NHEt)", "> 100 µM"],
  ["CC1(C)CN=C(Nc2ccc(F)c(Cl)c2)S1", "> 100 µM"],
  ["O=c1oc2ccccc2n1CCCn1c(=O)oc2ccccc21", "> 100 µM"],
  ["O=C1NC(N2CCCCC2)=N/C1=C\\c1ccccc1", "> 100 µM"],
  ["Cc1ccc(NC(=S)N=Nc2c(O)[nH]c3ccccc23)cc1", "> 100 µM"],
  ["CO/N=C(\\C(=O)[N-][n+]1cnn(CC(=O)O)c1)c1csc(N)n1", "> 10 µM"]
]}

Incoming: Tell me TGI of CC(=O)OC1(C#N)CC2OC1C1N=NN(C(=O)OC(C)(C)C)C21 (stereo not given) when tested on M14 melanoma.
Outgoing: 51.2 µM

Incoming: Tell me TGI of COc1ccc2c(c1)c(-c1ccc(-c3cn(C)c4ccc(OC)cc34)o1)cn2C when tested on M14 melanoma.
Outgoing: > 100 µM

* * *

Test system: SF-295 CNS
PROTOCOL TEXT: NCI tumour cell line growth inhibition, 48 h
MEASURE NAME: TGI

{"columns": ["MOLECULE", "TGI"],
 "data": [
  ["N.N.NCCCCCN.O=C([O-])CC(=O)[O-].O=C([O-])CC(=O)[O-].[Pt+4].[Pt+4]", "> 100 µM"],
  ["CC(C)(C)OC(=O)N1CCC(NC(=O)NC2CCN(C(=O)OC(C)(C)C)CC2)CC1", "> 100 µM"],
  ["Brc1ccc(C2CC3(c4ccccc4)ON=C(c4ccccc4)N3c3ccccc3S2)cc1 (stereo not given)", "> 100 µM"],
  ["CCN(CC)CCC(=O)N1C/C(=C/c2ccccc2)C(=O)/C(=C\\c2ccccc2)C1", "5.15 µM"]
]}

Incoming: Please look at this molecule and report its TGI: COC(=O)[C@]1(Cc2ccc3ccccc3c2)CCCCCCN1C(=O)c1ccccc1
Outgoing: > 44.5 µM

* * *

Tested on: U251 CNS
PROTOCOL TEXT: NCI tumour cell line growth inhibition, 48 h
Square brackets hold non-standard residues; d marks the D form. Peptide text beside a SMILES is read from it. Phe(4-NO2) = N[CH](Cc1ccc([N+](=O)[O-])cc1)C(=O)O
MEASURE NAME: TGI

Answered examples (10):
{"columns": ["MOLECULE", "RESULT VALUE"],
 "data": [
  ["C(#C[C@@]12CCC[C@@H]1N(Cc1ccccc1)CO2)c1ccc2c(c1)OCO2", "> 100 µM"],
  ["Cc1ccc2c(c1)-c1oc(=O)c(-c3cc4ccccc4oc3=O)cc1C(O)O2 (stereo not given)", "26.6 µM"],
  ["CCOC(=O)c1csc(-c2nc(CCNC(=O)c3ccccc3)sc2Cl)n1", "> 100 µM"],
  ["Cc1ccc(NC(=S)N=Nc2c(O)[nH]c3ccccc23)cc1", "> 100 µM"],
  ["COc1ccc2c(c1OC)C(C=C(c1ccccc1)c1ccccc1)CN(C)C2 (stereo not given)", "57.3 µM"],
  ["C(/C=C/Nc1ccc(-c2ccccc2)cc1)=Nc1ccc(-c2ccccc2)cc1", "> 100 µM"],
  ["COc1cc(OC)cc(C(=O)Cc2c(C(=O)c3ccccc3)c3ccccc3n2C(=O)c2ccccc2)c1", "> 100 µM"],
  ["CCOc1ccc(N=Cc2ccc3ccccc3n2)cc1", "> 100 µM"],
  ["CCCCCCCCCC[N+](C)(C)C", "2.29 µM"],
  ["COC(=O)CCCNC(=O)C(=O)c1c(O)c(O)c(C(C)C)c2cc(C)c(-c3c(C)cc4c(C(C)C)c(O)c(O)c(C(=O)C(=O)NCCCC(=O)OC)c4c3O)c(O)c12", "2.31 µM"]
]}

Incoming: Please look at this molecule and report its TGI: Cn1c(O)c(C=Nc2ccc(Cl)cc2Cl)c(=O)n(C)c1=O
Outgoing: > 100 µM

Incoming: Please look at this molecule and report its TGI: Nc1nc(CC2(O)CCCCC2)cc(-c2ccccc2)n1
Outgoing: > 100 µM

Incoming: Please look at this molecule and report its TGI: Cc1ccccc1C[P+](c1ccccc1)(c1ccccc1)c1ccccc1
Outgoing: > 100 µM

Incoming: Please look at this molecule and report its TGI: CC(C)c1cc(C(=O)[O-])c(O)c(C(C)C)c1.CC(C)c1cc(C(=O)[O-])c(O)c(C(C)C)c1.CC(C)c1cc(C(=O)[O-])c(O)c(C(C)C)c1.CC(C)c1cc(C(=O)[O-])c(O)c(C(C)C)c1.CC(C)c1cc(C(=O)[O-])c(O)c(C(C)C)c1.CC(C)c1cc(C(=O)[O-])c(O)c(C(C)C)c1.[Cu+2].[Mn+2].[Mn+2]
Outgoing: 22.7 µM

Incoming: Please look at this molecule and report its TGI: Nc1ncnc2c1cnn2COCC(O)CO (stereo not given)
Outgoing: > 100 µM

Incoming: Please look at this molecule and report its TGI: COc1ccc(NS(=O)(=O)c2ccc(N=C3C=C(Nc4ccc(S(=O)(=O)Nc5ccc(OC)nn5)cc4)C(=O)c4ccccc43)cc2)nn1
Outgoing: 33.2 µM

Incoming: Please look at this molecule and report its TGI: COC(=O)CCC(NC(=O)C(CCC(=O)OC)NC(=O)C(CCC(=O)OC)NC(=O)C(CCC(=O)OC)NC(=O)C(CCC(=O)OC)NC(=O)C(Cc1ccc([N+](=O)[O-])cc1)NC(=O)C(CCC(=O)OC)NC(=O)C(CCC(=O)OC)NC(=O)C(CCC(=O)OC)NC(=O)C(CCC(=O)OC)NC(=O)C(CCC(=O)OC)NC(C)=O)C(N)=O (stereo not given) (Ac-E(OMe)E(OMe)E(OMe)E(OMe)E(OMe)[Phe(4-NO2)]E(OMe)E(OMe)E(OMe)E(OMe)E(OMe)-NH2; configuration not given here)
Outgoing: > 100 µM

Incoming: Please look at this molecule and report its TGI: Cc1cc(=O)n2nc(CSc3n[nH]c(=S)s3)sc2n1
Outgoing: > 100 µM
